System: UniProtKB Q27890 | Read-out: IC50
Sequence (Q27890 whole entry, looked up): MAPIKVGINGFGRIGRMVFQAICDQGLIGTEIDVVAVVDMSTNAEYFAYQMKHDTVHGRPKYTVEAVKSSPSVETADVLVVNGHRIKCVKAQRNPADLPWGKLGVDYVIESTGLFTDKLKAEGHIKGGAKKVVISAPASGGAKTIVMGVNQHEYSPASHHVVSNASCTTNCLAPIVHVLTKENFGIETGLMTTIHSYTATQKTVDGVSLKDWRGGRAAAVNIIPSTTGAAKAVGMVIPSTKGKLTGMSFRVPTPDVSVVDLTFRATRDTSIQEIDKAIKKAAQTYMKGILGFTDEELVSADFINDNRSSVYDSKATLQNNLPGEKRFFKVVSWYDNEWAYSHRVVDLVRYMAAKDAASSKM
quantity: IC50 (µM)

>>> print(df.to_string())
                                   molecule  experimental_target  quantity  numeric_readout
0  CN(C)c1cccc(C(=O)N[C@@H]2[C@H](O)[C@@H](CO)O[C@H]2n2cnc3c(NCc4cccc5ccccc45)ncnc32)c1     UniProtKB Q27890      IC50               25
1  O=C(N[C@@H]1[C@H](O)[C@@H](CO)O[C@H]1n1cnc2c(NCc3cccc4ccccc34)ncnc21)c1cccc(Cl)c1     UniProtKB Q27890      IC50                6
2  COc1ccc(C(=O)N[C@@H]2[C@H](O)[C@@H](CO)O[C@H]2n2cnc3c(NCc4cccc5ccccc45)ncnc32)cc1     UniProtKB Q27890      IC50              100
3  COc1cc(OC)cc(C(=O)N[C@@H]2C(Cn3cnc4c(NCc5ccccc5C)ncnc43)OC(CO)[C@@H]2O)c1 (some centres not stated)     UniProtKB Q27890      IC50               25
4  CC(=O)Oc1ccc(C(=O)N[C@@H]2[C@H](O)[C@@H](CO)O[C@H]2n2cnc3c(NCc4cccc5ccccc45)ncnc32)cc1OC(C)=O     UniProtKB Q27890      IC50               25
5  COc1cccc(C(=O)N[C@@H]2[C@H](O)[C@@H](CO)O[C@H]2n2cnc3c(NCc4cc(O)cc5ccccc45)ncnc32)c1     UniProtKB Q27890      IC50                6
6  COc1ccc(C(=O)N[C@@H]2[C@H](O)[C@@H](CO)O[C@H]2n2cnc3c(NCc4cccc5ccccc45)ncnc32)cc1O     UniProtKB Q27890      IC50               37

* * *

Form field: pIC50 (one value per entry).
# protocol_description: In vitro inhibition of Trypanosoma cruzi GAPDH.
pIC50: −log10 of the molar value.
quantity: pIC50

In [3]: df
Out[3]:
                                  smiles_str  quantity  numeric_readout
 0  COc1ccc(C(=O)N[C@@H]2[C@H](O)[C@@H](CO)O[C@H]2n2cnc3c(NCc4cccc5ccccc45)ncnc32)cc1OC     pIC50             5.15
 1  COc1cc(OC)cc(C(=O)N[C@@H]2[C@H](O)[C@@H](CO)O[C@H]2n2cnc3c(NCc4cc(OC)cc5ccccc45)ncnc32)c1     pIC50             5.15
 2  COc1cccc(C(=O)N[C@@H]2[C@H](O)[C@@H](CO)O[C@H]2n2cnc3c(NCc4cc(OC)cc5ccccc45)ncnc32)c1     pIC50             4.92
 3  COc1cc(CNc2ncnc3c2ncn3[C@@H]2O[C@H](CO)[C@@H](O)[C@H]2NC(=O)c2cc(Cl)cc(Cl)c2)c2ccccc2c1     pIC50             4.40
 4  O=C(N[C@@H]1[C@H](O)[C@@H](CO)O[C@H]1n1cnc2c(NCc3cc(O)cc4ccccc34)ncnc21)c1cc(Cl)cc(Cl)c1     pIC50             4.40
 5  O=C(N[C@@H]1[C@H](O)[C@@H](CO)O[C@H]1n1cnc2c(NCc3cc(O)cc4ccccc34)ncnc21)c1cccc(Cl)c1     pIC50             4.92
 6  COc1cc(OC)cc(C(=O)N[C@@H]2[C@H](O)[C@@H](CO)O[C@H]2n2cnc3c(NCc4cc(O)cc5ccccc45)ncnc32)c1     pIC50             5.00
 7  COc1cccc(C(=O)N[C@@H]2[C@H](O)[C@@H](CO)O[C@H]2n2cnc3c(NCc4cccc5ccccc45)ncnc32)c1     pIC50             4.92
 8  COc1cc(OC)cc(C(=O)N[C@@H]2[C@H](O)[C@@H](CO)O[C@H]2n2cnc3c(NCc4cccc5ccccc45)ncnc32)c1     pIC50             5.15
 9  O=C(N[C@@H]1[C@H](O)[C@@H](CO)O[C@H]1n1cnc2c(NCc3cccc4ccccc34)ncnc21)c1cc(Cl)cc(Cl)c1     pIC50             4.12
10  COc1cccc(C(=O)N[C@@H]2[C@H](O)[C@@H](CO)O[C@H]2n2cnc3c(NCc4ccc(OC)c5ccccc45)ncnc32)c1     pIC50             4.30
11  O=C(N[C@@H]1[C@H](O)[C@@H](CO)O[C@H]1n1cnc2c(NCc3cccc4ccccc34)ncnc21)c1cc(O)cc(O)c1     pIC50             4.85
12  COc1cccc(C(=O)N[C@@H]2[C@H](O)[C@@H](CO)O[C@H]2n2cnc3c(NCc4cc(O)cc5ccccc45)ncnc32)c1     pIC50             4.92
13  CC(=O)Oc1cc(OC(C)=O)cc(C(=O)N[C@@H]2[C@H](O)[C@@H](CO)O[C@H]2n2cnc3c(NCc4cccc5ccccc45)ncnc32)c1     pIC50             4.92
